The sequences listed here are annotated with their apparent KD of MS2 coat protein.
- System: MS2 coat protein
- testMethodNotes: apparent KD of MS2 coat protein; designed switch direction (-1 OFF switch, 1 ON switch): -1; higher = weaker reporter binding
- conditionSet: input ligand: none
Answer with a number only, understood to be in nM.

monomerSequence: GAGUGCUUAGGAUAUACAUGAGGAUCACCCAUGUGCUUCAGCUAGGAGACUAGCAUUGGUAGAAGGGAGUACUC [Mod of lroppy 5 - Jieux - Exclusion 3] (Eterna round: R97, puzzle: Exclusion 3)
quantitativeResult: 14.9

## Input Record lookup: for MS2 coat protein, what apparent KD of MS2 coat protein belongs to AUUGAUAGCACAGGAUAUUGAGAUUUGAAUUGACAAGAAGGGUGUACAUGAGGAUCACCCAUGUAAUGGGAGAAUGAUUGAUUA [JR_ExcNG1_Sub001] (Eterna round: R96, puzzle: Exclusion NG 1) ?
## Output 1640

## Input Record lookup: for MS2 coat protein, what apparent KD of MS2 coat protein belongs to AAGAAGAUCAGAGGAUAUGGAGCUGAAACGGCGCUAGAAGGCUGUCUAGUGUAACAUGAGGAUCACCCAUGUAGGGACCUCUAA [EX ng 1 4.3] (Eterna round: R96, puzzle: Exclusion NG 1) ?
## Output 884

## Input Record lookup: for MS2 coat protein, what apparent KD of MS2 coat protein belongs to ACAUUACAUGAGGAUCACCCAUGUGAGGAUAUGGAGCGAGAGUGUCCUGUCGCGUACACCAGAAGGCGCGGGUG [1st #50] (Eterna round: R97, puzzle: Exclusion 1) ?
## Output 80.1

## Input Record lookup: for MS2 coat protein, what apparent KD of MS2 coat protein belongs to ACAUGAGGAUCACCCAUGUAAACAUGAUGGCUGAUGUAGAGCUAGGAUAUGAGUGACUAUCUAUCUCAGAAGGAGCUUGACUGG [Deportation 45 - Jieux - Exclusion NG 3] (Eterna round: R96, puzzle: Exclusion NG 3) ?
## Output 31.4

## Input Record lookup: for MS2 coat protein, what apparent KD of MS2 coat protein belongs to AUUUUGUGAGGAUAUUAGUAGUAAAUGAAUAAAAUUAUUACUGAGAAGGCACAUGAGGAUCACCCAUGUUCCUA [Mat - Exclusion 4 - Eli Mod - D7] (Eterna round: R97, puzzle: Exclusion 4) ?
## Output 19.2
